A collection of binders and their measured pKd
Target Or Test System: T1, recombinant cynomolgus monkey PD-1 expressed with a C-terminal myc-myc-hexahistidine tag (cynomolgus monkey (Macaca fascicularis))
T1 construct: monomeric; also called MfPD-1-MMH
T1 chain: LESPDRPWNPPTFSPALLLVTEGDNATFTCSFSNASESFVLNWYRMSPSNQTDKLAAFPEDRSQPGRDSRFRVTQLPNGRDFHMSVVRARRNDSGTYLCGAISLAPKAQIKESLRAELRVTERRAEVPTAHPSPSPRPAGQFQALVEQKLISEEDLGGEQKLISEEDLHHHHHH
Protocol Details: SPR, mAb captured, 25C;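 further: rates from fitting Biacore data for PD-1 binding to anti-PD-1 antibodies with a 1:1 model, KD computed as koff/kon and t½ as ln2/(60·koff)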
pKd: −log10 of the molar value.

{"Binder": "H1M7799N (antibody, mouse IgG1, V domains shown, Human variable regions, mouse IgG1 Fc) VH: EVQLVESGGGLVQPGGSLRLSCAASGFTVSNNYMSWVRQAPGKGLEWVSVIYSGGFTYYTDSVKGRFTISRHNSKNTLYLQMNSLRAEDTAVYYCARYYYDTSDYWTFFDYWGQGTLVTVSS VL: EIVMTQSPATLSVSPGERATLSCRASQSVSSNLAWYQQKPGQAPRLLIYGASTRATGIPARFSGSGSGTEFTLTISSLQSGDFAVYYCQQYNNWPLTFGGGTKVEIN", "pKd": 6.65}
{"Binder": "H4H7795N2 (antibody, human IgG4 S228P, kappa, V domains shown) VH: EVQVVESGGGLVEPGRSLRLSCKASGFTFDDYAMHWVRQTPGKALEWVSGISWSGNNIGYADSVKGRFTISKDDAKNSLYLQMNSLRPEDTALYYCTKDISITGTLDAFDVWGQGTMVTVSS VL: DIQMTQSPISVSASVGDRVTITCRASQGISNWLAWYQQKPGIAPKLLIYSASSLQSGVPSRFRGSGSGTDFTLTIGSLQPEDFATYYCQQAHSFPLTFGGGTKVEIKR", "pKd": 7.65}
{"Binder": "H2aM7795N (antibody, mouse IgG2a, V domains shown, Human variable regions, mouse IgG2a Fc; also called H2M7795N) VH: EVQVVESGGGLVEPGRSLRLSCKASGFTFDDYAMHWVRQTPGKALEWVSGINWSGNNIGYADSVKGRFTISKDDAKNSLYLQMNSLRPEDTALYYCTKDISITGTLDAFDVWGQGTMVTVSS VL: DIQMTQSPISVSASVGDRVTITCRASQGISNWLAWYQQKPGIAPKLLIYSASSLQSGVPSRFRGSGSGTDFTLTIGSLQPEDFATYYCQQAHSFPLTFGGGTKVEIK", "pKd": 7.70}
